Reported %Inh is given for each of the following molecules.
# Tested on: NEK3;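 further: KINOMEscan kinase panel screen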
# condition_summary: concentration: 1 μM, replicates: in singlicate; n = 1
Your answer should be a plain number; it is taken to be in %.

Worked set:
>>> quantitative_readout("COC(=O)Nc1nc2cc(Oc3ccc(NC(=O)Nc4cccc(SC)c4)cc3)ccc2[nH]1.Cl")
4
>>> quantitative_readout("CN(C)CCNS(=O)(=O)c1ccc(-c2ccnc3[nH]ccc23)cc1")
0
>>> quantitative_readout("Cc1ccc(O)cc1Nc1ccnc2cc(-c3ccc(CN4CCCCC4)o3)ccc12")
3
>>> quantitative_readout("CN(c1ccc(NC(=O)N2CCN(CCCN3CCOCC3)CC2)cc1)c1ccnc(Nc2ccc(CS(C)(=O)=O)cc2)n1.Cl")
9

Task: // query %Inh value for entry COC(=O)Nc1nc2ccc(Oc3ccc(CC(=O)Nc4cc(C(F)(F)F)ccc4F)cc3)cc2[nH]1
Result: 6

Task: // query: CN(C)CCOc1ccc(-c2cc(-c3ccc(Cl)c(O)c3)c(-c3ccncc3)[nH]2)cc1.Cl.Cl
Result: 2

Task: // query: Cc1ccccc1CC(=O)N1CCc2cc(-c3cn(C)c4ncnc(N)c34)ccc21
Result: 0

Task: // query: CC(=O)Nc1cn2nc(Oc3cccc(NC(=O)c4cccc(C(F)(F)F)c4)c3)ccc2n1
Result: 8
